Measured IC50 of individual entries
Target: human KHK-A (Homo sapiens (Human))
Sequence (P50053 other isoform, or with tags, fused parts or gaps): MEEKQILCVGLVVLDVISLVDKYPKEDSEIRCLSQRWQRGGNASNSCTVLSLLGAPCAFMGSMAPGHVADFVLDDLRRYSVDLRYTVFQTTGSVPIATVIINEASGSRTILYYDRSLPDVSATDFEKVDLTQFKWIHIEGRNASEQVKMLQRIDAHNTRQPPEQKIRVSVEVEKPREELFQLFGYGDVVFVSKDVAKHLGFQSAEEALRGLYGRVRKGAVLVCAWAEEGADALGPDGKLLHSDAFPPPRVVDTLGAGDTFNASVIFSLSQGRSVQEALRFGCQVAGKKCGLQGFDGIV
Experiment: KHK Biochemical Assay (IC50), ADP-Glo, KHK-A
Details: ADP-Glo; average of at least two separate assays
Express it in µM; write the number only.

* C[C@H]1[C@H](O)CN1c1nc2c(c(-c3cccc(C4CC4C(N)=O)c3)n1)CCC2 (some centres unmarked) [Example 112] | 0.103

Query IC50 for C[C@H]1CCN1c1nc(-c2ccccc2)c2c(ncn2C)n1 [Example 211] 7.31

Query IC50 for C[C@H]1[C@H](O)CN1c1nc2c(c(-c3cccc(S(N)(=O)=O)c3)n1)CCOC2 [Example 286] 0.718

Query IC50 for C[C@H]1CCN1c1nc2c(c(-c3cc[nH]n3)n1)CCC2 [Example 18] 0.0551

Query IC50 for C[C@H]1CCN1c1nc2c(c(-c3cccc(S(C)(=N)=O)n3)n1)CCC2 (some centres unmarked) [Example 860] 0.191

Query IC50 for C[C@H]1[C@H](O)CN1c1nc2c(c(-c3ccc4c(=O)[nH]ccc4c3)n1)CCC2 [Example 373] 0.054

Query IC50 for CNC(=O)c1ccc(-c2nc(N3CC[C@@H]3C)nc3c2CCC3)cn1 [Example 280] 0.122

Query IC50 for C[C@H]1[C@H](O)CN1c1nc2c(c(-c3ccc(C(N)=O)cc3)n1)CCC2 [Example 197] 0.0655

Query IC50 for C[C@H]1[C@H](O)CN1c1nc(-c2ccc(C(N)=O)cc2)c2c(n1)C(F)(F)CC2 [Example 129] 0.014

Query IC50 for C[C@H]1CCN1c1nc2c(c(-c3ccc(C4(NC(=O)OC(C)(C)C)CC4)cc3)n1)CCC2 [Example 294] 3.89

Query IC50 for C[C@H]1CCN1c1nc2c(c(-c3ccc4c(c3)CC(F)C4NS(C)(=O)=O)n1)CCC2 (some centres unmarked) [Example 885] 0.15

Query IC50 for C[C@H]1CCN1c1nc2c(c(-c3ccc(C(N)=O)c(SCc4ccccc4)c3)n1)CCC2 [Example 842] 0.304

Query IC50 for COc1ccc(-c2nc(N3CC[C@@H]3C)nc3c2CCC3)cc1S(=N)(=O)c1ccc(C#N)cc1Cl (some centres unmarked) [Example 849] 0.0163

Query IC50 for C[C@H]1CCN1c1nc2c(c(-c3cccc(O)c3)n1)CCC2 [Example 261] 0.133

Query IC50 for C[C@H]1CCN1c1nc2c(c(-c3cc4c(N)nn(C(=O)OC(C)(C)C)c4cn3)n1)CCC2 [Example 868] 0.158

Query IC50 for COc1cc(-c2nc(N3CC[C@@H]3C)nc3c2CCC3)ccc1CS(N)(=O)=O [Example 862] 0.0481

###

Measured IC50 of individual entries
Molecular target: human KHK-C (Homo sapiens (Human))
Sequence (P50053 whole entry): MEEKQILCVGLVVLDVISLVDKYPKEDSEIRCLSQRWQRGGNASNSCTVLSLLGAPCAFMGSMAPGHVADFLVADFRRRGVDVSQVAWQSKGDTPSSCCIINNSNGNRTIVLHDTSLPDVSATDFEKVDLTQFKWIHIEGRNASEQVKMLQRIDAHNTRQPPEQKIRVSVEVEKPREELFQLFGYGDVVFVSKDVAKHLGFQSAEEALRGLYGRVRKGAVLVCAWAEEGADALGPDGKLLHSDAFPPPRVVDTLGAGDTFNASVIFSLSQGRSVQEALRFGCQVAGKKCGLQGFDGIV
Assay: KHK Biochemical Assay (IC50), ADP-Glo, KHK-C
Conditions: average of at least two separate assays
Express it in µM; write the number only.

Below, each entry is followed by its recorded IC50 result.
* CS(=O)(=O)N[C@H]1COc2cc(-c3nc(N4CC[C@H]4C(F)F)nc4c3CCC4(F)F)ccc21 (single isomer, unassigned) | 0.0239
* C[C@H]1[C@H](F)CN1c1nc(-c2ccc(C(N)CS(C)(=O)=O)cc2)c2c(n1)C(F)(F)CC2 (stereo partly shown) | 0.0023
* NC1(c2ccc(-c3nc(N4CCC5CC54)nc4c3CCC4(F)F)cc2)COC1 (stereo not shown) | 0.0497

Query IC50 for COc1ccc(-c2nc(N3C[C@@H](O)[C@@H]3C)nc3c2CCC3(F)F)cc1[S@](C)(=N)=O (single isomer, unassigned) 0.0076

###

Target: human KHK-C (Homo sapiens (Human))
Assay: KHK Biochemical Assay (IC50), ADP-Glo, KHK-C
assay-metric: IC50 (µM)
Express it in µM; write the number only.

Query IC50 for C[C@H]1CCN1c1nc(N2CC3CC3C2)cc(C(F)(F)F)n1 (stereo partly shown) [Reference Compound 1b, reference compound] 13.1

###

Observed pIC50, system human OATP1B1 (Homo sapiens (Human), UniProt Q9Y6L6).
// pIC50 here means minus log10 of the molar concentration (mol/L)

Below, each entry is followed by its recorded pIC50 result.
• C[C@H]1[C@H](O)CN1c1nc(-c2ccc3c(c2)OC[C@@H]3NS(C)(=O)=O)c2c(n1)C(F)(F)CC2 = 5.52
• COc1cc(-c2nc(N3C[C@@H](O)[C@@H]3C)nc3c2CCC3(F)F)cc2c1[C@@H](NS(C)(=O)=O)CO2 (single isomer, unassigned) = 6.00

Now let's try a different one.
State pIC50 (human OATP1B1 (Homo sapiens (Human), UniProt Q9Y6L6)) of C[C@H]1[C@H](O)CN1c1nc(-c2cnc3c(c2)OCCNC3=O)c2c(n1)C(F)(F)CC2 . 5.36

###

Measured EC50 of individual entries
Target: KHK-C expressed in NRK-52E cells (Homo sapiens (Human), UniProt P50053)
Assay: KHK-C Cell-based Assay (EC50), NRK CTG, fructose-mediated ATP-depletion

• C[C@H]1CCN1c1nc(-c2cccc(N=[S@@](C)(N)=O)c2)c2c(n1)C(F)(F)CC2 (single isomer, unassigned) [Example 691] = 0.0504 µM

Query EC50 for COC(=O)[C@H]1C[C@@]12C(=O)Nc1ccc(-c3nc(N4CC[C@@H]4C)nc4c3CCC4)cc12 (racemic) [Example 407] 0.506 µM

Query EC50 for C[C@H]1CCN1c1nc2c(c(-c3cccc(S(=O)(=O)NCC(=O)O)c3)n1)CCC2 [Example 74] 0.859 µM

Query EC50 for C[C@H]1CCN1c1nc2c(c(-c3ccc(C45CC(C(N)=O)(C4)C5)cc3)n1)CCC2 [Example 250] 0.852 µM

Query EC50 for C[C@H]1[C@H](O)CN1c1nc(-c2ccc3c(c2)O[C@@H](CO)CNC3=O)c2c(n1)C(F)(F)CC2 [Example 808] 0.696 µM

Query EC50 for C[C@H]1CCN1c1nc2c(c(-c3ccc4c(ccn4C)c3)n1)CCC2 [Example 275] 0.291 µM

Query EC50 for C[C@H]1CCN1c1nc2c(c(-c3ccc4c(c3)CCNC4)n1)CCC2 [Example 379] 0.0026 µM

Query EC50 for C[C@H]1[C@H](O)CN1c1nc(-c2ccc3c(c2)CC[C@@]32COCC(=O)N2)c2c(n1)C(F)(F)CC2 (single isomer, unassigned) [Example 549] 0.0038 µM

Query EC50 for C[C@H]1[C@H](O)CN1c1nc2c(c(-c3ccc(C(N)=O)cc3)n1)CC2 [Example 125] 3.56 µM

###

Target: human KHK-A (Homo sapiens (Human))
Assay: KHK Biochemical Assay (IC50), ADP-Glo, KHK-A
Conditions: average of at least two separate assays
pIC50: −log10 of the molar value.
# label = MET if pIC50 >= 8 else NOT MET

Below, 4 compounds whose answers are already recorded.
* C[C@H]1[C@H](O)CN1c1nc(-c2ccc3c(c2)OC[C@@]32NC(=O)OC2(C)C)c2c(n1)C(F)(F)CC2 (single isomer, unassigned) | NOT MET
* COc1ccc(-c2nc(N3CC(F)(F)[C@@H]3C)nc3c2CCC3(F)F)cc1[S@@](C)(=N)=O | MET
* C[C@H]1CCN1c1nc2c(c(-c3ccc4c(c3)C(=O)NC(=O)C4)n1)CCC2 | NOT MET
* C[C@H]1[C@H](O)CN1c1nc(-c2ccc3c(c2)OC[C@@]32COCC(=O)N2)c2c(n1)C(F)(F)CC2 (single isomer, unassigned) | MET

Decide: is the reported value of pIC50 for NC(=O)c1ccc(-c2nc(N3CC(O)[C@@H]3Cc3ccccc3)nc3c2CCC3)cc1 (some centres unmarked) equal to or greater than 8? NOT MET

Decide: is the reported value of pIC50 for NC(=O)c1ccc(-c2nc(N3CCC34CCC4)nc3c2CCC3)cc1 equal to or greater than 8? NOT MET

Decide: is the reported value of pIC50 for C[C@@H]1N(c2nc(-c3ccc4c(c3)COC[C@@H]4NS(C)(=O)=O)c3c(n2)C(F)(F)CC3)CC1(F)F equal to or greater than 8? NOT MET

Decide: is the reported value of pIC50 for C[C@H]1[C@H](O)CN1c1nc(-c2ccc3c(c2)OC[C@@H]3NC2COC2)c2c(n1)C(F)(F)CC2 equal to or greater than 8? NOT MET

Decide: is the reported value of pIC50 for C[C@H]1CCN1c1nc2c(c(-c3ccc4c(=O)[nH]cc(S(N)(=O)=O)c4c3)n1)CCC2 equal to or greater than 8? NOT MET

###

Target: human KHK-A (Homo sapiens (Human))
Experiment: KHK Biochemical Assay (IC50), ADP-Glo, KHK-A
Details: ADP-Glo; average of at least two separate assays
assay-metric: log10 IC50 (log10 of the value in nM)
A value of 2 here means IC50 of 100 in nM, since values are log10.

Below, each entry is followed by its recorded log10 IC50 result.
• C[C@H]1CCN1c1nc2c(c(-c3ccc(CN(C)C)cc3)n1)CCC2 = 1.58
• C[C@H]1CCN1c1nc2c(c(-c3ccc(N4CCOCC4)nc3)n1)CCC2 = 2.15
• C[C@H]1CCN1c1nc2c(c(-c3ccc(C(N)=O)c(Cc4ccccc4)c3)n1)CCC2 = 1.45
• C[C@H]1CCN1c1nc2c(c(-c3cccc(CCC(=O)O)c3)n1)CCC2 = 1.62
• C[C@H]1CCN1c1nc2c(c(-c3ccc4c(c3)CCCCC4NS(C)(=O)=O)n1)CCC2 (some centres unmarked) = 2.73

Query log10 IC50 for C[C@H]1CCN1c1nc2c(c(-c3ccc4c(ccn4C)c3)n1)CCC2 3.02

Query log10 IC50 for C[C@H]1CCN1c1nc2c(c(-c3ccc(C(O)C4(C#N)CC4)cc3)n1)CCC2 (some centres unmarked) 1.70
